- SUBJECT OF TEST: human V1a receptor (Homo sapiens, UniProt P37288)
- Construct: expressed in transfected cells; host or cells: CHO K1 (ATCC), also stably transfected with a modified aequorin
- Sequence (P37288 whole entry): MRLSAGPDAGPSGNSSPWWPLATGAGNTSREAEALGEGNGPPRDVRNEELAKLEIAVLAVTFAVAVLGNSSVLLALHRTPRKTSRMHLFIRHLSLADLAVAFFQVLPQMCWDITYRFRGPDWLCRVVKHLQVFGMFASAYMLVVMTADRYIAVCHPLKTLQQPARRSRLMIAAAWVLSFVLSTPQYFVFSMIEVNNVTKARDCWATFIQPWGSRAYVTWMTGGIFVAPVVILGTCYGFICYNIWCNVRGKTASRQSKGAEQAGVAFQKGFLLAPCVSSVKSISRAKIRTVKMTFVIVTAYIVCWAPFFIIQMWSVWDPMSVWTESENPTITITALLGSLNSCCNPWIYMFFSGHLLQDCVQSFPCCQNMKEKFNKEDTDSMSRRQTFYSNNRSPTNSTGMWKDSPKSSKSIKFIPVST
- TEST METHOD NOTES: Cellular in vitro assay for vasopressin receptor activity, V1a receptor cell line (aequorin luminescence)
- Format: cell-based
- CONDITION DESCRIPTION: Table 1A; selectivity V1a over V2
READOUT KIND: ratio IC50 hV2/hV1a
Give the figure by itself; no unit, no explanation.

Lookup: What ratio IC50 hV2/hV1a value was documented for this molecule, NC(=O)c1nc(Cn2nc(-c3ccc(Cl)cc3)n(CC(=O)C(F)(F)F)c2=O)nn1-c1ccccc1C(F)(F)F ?
Found: 18.2

Lookup: What ratio IC50 hV2/hV1a value was documented for this molecule, NC(=O)c1nc(Cn2nc(-c3ccc(Cl)cc3)n(CC(=O)C(F)(F)F)c2=O)nn1-c1ccccc1OC(F)(F)F ?
Found: 11.9

Lookup: What ratio IC50 hV2/hV1a value was documented for this molecule, NC(=O)c1nc(Cn2nc(-c3ccc(Cl)cc3)n(C[C@H](O)C(F)(F)F)c2=O)nn1-c1ccccc1C(F)(F)F ?
Found: 41.4

Lookup: What ratio IC50 hV2/hV1a value was documented for this molecule, CS(=O)(=O)c1ccccc1-n1nc(Cn2nc(-c3ccc(Cl)cc3)n(C[C@H](O)C(F)(F)F)c2=O)nc1C(N)=O ?
Found: 40.7

Lookup: What ratio IC50 hV2/hV1a value was documented for this molecule, CCOc1ccccc1-n1nc(Cn2nc(-c3ccc(Cl)cc3)n(C[C@H](O)C(F)(F)F)c2=O)nc1C(N)=O ?
Found: 24.1

Lookup: What ratio IC50 hV2/hV1a value was documented for this molecule, NC(=O)c1nc(Cn2nc(-c3ccc(Cl)cc3)n(C[C@@H](O)C(F)(F)F)c2=O)nn1-c1ccccc1C(F)(F)F ?
Found: 74.5

Where do these numbers come from? They come from patent US10815205B2.
